# TEST: qHTS assay to identify small molecule antagonists of the thyroid receptor (TR) signaling pathway (AID 743065); note: nearly all actives have a fitted effect of over 55% in size; note: potency is the fitted concentration of half-maximal effect
# MEASUREMENT PARAMETERS: GH3.TRE-Luc, T3-stimulated luciferase inhibition, 23.5 h; series mostly up to 70.3 µM
Records with an inconclusive call do not appear. The source made the active and inactive calls. Calls come from the whole dose curve; as a rule, active = well fitted inhibition curve with a large enough effect in the repeat runs; inconclusive = weak or mixed curves; inactive = no such curve, though single readings can be large or run the other way.
PROPERTY MEASURED: Potency

COMPOUND: CS(=O)(=O)NC(=O)CCC/C=C\C[C@H]1C(=O)C[C@@H](O)[C@@H]1/C=C/[C@H](O)COc1ccccc1
Potency: inactive
//
COMPOUND: C[C@@H](O)[C@H]1C(=O)N2C(C(=O)[O-])=C(SC3Cn4cnc[n+]4C3)[C@H](C)[C@H]12 (some centres undefined)
Potency: inactive
//
COMPOUND: CC(=O)Oc1cc(C)c(OC(C)=O)c2ccccc12
Potency: 23.7 µM (active)
//
COMPOUND: C=C1C(=O)O[C@H]2[C@H]1CC/C(C)=C\CC[C@@]1(C)O[C@@H]21
Potency: 7.5 µM (active)
//
COMPOUND: COC(=O)C1=C(C)NC(C)=C(C(=O)O[C@H]2CCN(Cc3ccccc3)C2)[C@H]1c1cccc([N+](=O)[O-])c1
Potency: 18.8 µM (active)

// for each compound below, give its Potency
1. O=C(O)c1nc(=O)[nH]c(=O)[nH]1
2. CCCCCCCCCCCCCCCC(=O)OCC(COC(=O)CCCCCCCCCCCCCCC)OC(=O)CCCCCCCCCCCCCCC
3. CS(=O)(=O)Nc1cc2occ(NC=O)c(=O)c2cc1Oc1ccccc1

1. inactive
2. inactive
3. inactive

What does the data say about its Potency? Entry: `O=S(=O)(O)Oc1ccc(C(c2ccc(OS(=O)(=O)O)cc2)c2ccccn2)cc1`
inactive

* * *

# TEST: qHTS assay to identify small molecule antagonists of the androgen receptor (AR) signaling pathway using the MDA cell line - cell viability counter screen (AID 743041; note: nearly all actives have a fitted effect of over 45% in size)
# MEASUREMENT PARAMETERS: MDA-kb2 viability, CellTiter-Fluor, 16 h, cells co-treated with R1881 androgen agonist; series mostly up to 70.3 µM
Records with an inconclusive call do not appear. Calls of active or inactive are those of the source. Calls come from the whole dose curve; as a rule, active = well fitted cell-killing curve with a large enough effect in the repeat runs; inconclusive = weak or mixed curves, or effect the other way; inactive = flat fitted curve, though single readings scatter.
# valid calls are active, inactive; nothing else

MOLECULE: COc1ccc(CC2c3cc(OC)c(OC)cc3CC[N+]2(C)CCC(=O)OCCCCCOC(=O)CC[N+]2(C)CCc3cc(OC)c(OC)cc3C2Cc2ccc(OC)c(OC)c2)cc1OC (stereo not given)
CLASS: inactive
--
MOLECULE: CN1c2cc(O)c(N=NC(N)=O)cc2CC1S(=O)(=O)O (stereo not given)
CLASS: inactive
--
MOLECULE: CC(=O)[C@]1(O)Cc2c(O)c3c(c(O)c2[C@@H](O[C@H]2C[C@H](N)[C@H](O)[C@H](C)O2)C1)C(=O)c1c(O)cccc1C3=O
CLASS: active

Hi team, can someone confirm the assay call for `CC(=O)[C@@]1(O)CC[C@H]2[C@@H]3C=C(Cl)C4=CC(=O)CC[C@]4(C)[C@H]3CC[C@@]21C` ?
inactive

Which outcome did this test record for the molecule `CCCCCCOc1ccc(C(=N)N(CCCC)CCCC)c2ccccc12` ?
active

* * *

# TEST: qHTS assay to identify small molecule phospholipidosis (PLD) inducers (AID 1259344)
# MEASUREMENT PARAMETERS: HepG2 phospholipidosis, LipidTOX Red imaging, 24 h; series mostly up to 38.3 µM
Inconclusive results are not listed. Activity calls are given as the source filed them. Calls follow the shape of the dose curve; as a rule, active = well fitted activation curve with a large enough effect; inconclusive = small, poorly fitted or top-dose-only effect; inactive = flat fitted curve, though single readings scatter.

MOLECULE: CC1(C)S[C@@H]2[C@H](NC(=O)C3(N)CCCCC3)C(=O)N2[C@H]1C(=O)O
PLD induction: inactive
--
MOLECULE: CC1(C)S[C@@H]2[C@H](NC(=O)C(N)c3ccccc3)C(=O)N2[C@H]1C(=O)OC1OC(=O)c2ccccc21 (some centres undefined)
PLD induction: inactive
--
MOLECULE: NC(=S)N=Nc1ccc(NN=C(N)N)cc1
PLD induction: inactive
--
MOLECULE: CCC(=O)O[C@]1(C(=O)CCl)[C@@H](C)C[C@H]2[C@@H]3C[C@H](F)C4=CC(=O)C=C[C@]4(C)[C@@]3(F)[C@@H](O)C[C@@]21C
PLD induction: inactive
